Experiment description: yeast display, Sf9 membrane polyspecificity reagent, FACS + sequencing; frameworks hold sequencing errors
Reported endpoint: polyreactivity (PSR sort gate)

Record excerpt, results attached:
stdin: # return recorded polyreactivity (PSR sort gate) for entry QVQHVESGGGLVQAGGSLRLSCAASGSIFLIYAMGWYRPAPGKERELVAAITGGGTTNYADSVKGRFTISRDNAKHTVYFQMNSLKPEDTAVYYCNTLYLVYLYWTSPTPSDLFDYWGQGTQVTVSS
stdout: low polyreactivity

stdin: Query polyreactivity (PSR sort gate) for QVQLVESGGGLVQAGGSLRLSCAASGSTYHQYTMGWYRQAPRKERELVSTINNGGITNYADSLKGRFTISRDNAKKTVYLQLISQNPEDTAVYYCAADYSYYGRYGRYDYWGQGTQVTVSS
stdout: low polyreactivity

stdin: Fill in polyreactivity (PSR sort gate) for record QVQLVESGGGLVQAGGSLRLSCAASGIIFAANAMGWYRQAPGKERELVAAISKNGGITYYADSVKGRFTISRDTAKNTVYLQMNSLKPEDTAVYYCAARWRQTRRYYYWGQGTQVTVSS
stdout: high polyreactivity

stdin: Output polyreactivity (PSR sort gate) of QVQLVESGGGLVQARGSLRLSCAASGSTFRYYAMGLYRQAPGKERELVAAITSSGTSTYYADSVKGRFTISRDNAKNTVYLQMISLKPEDTAVYYCAAPPVYKWVSSRYDYWGQVTQVTVSS
stdout: low polyreactivity

With those in mind, consider the next sequence.
stdin: Note polyreactivity (PSR sort gate) for the sequence shown: QEQLVESGGGLVQAGGSLRLSCAASGNTFSYNAMGWYRQAPGKEREVVAAISSRGVRTYYADSVKGRFTISRDNAKNTVYLQMNSLKPEDTAVYYCAADLWDWAYDYWGQGTQVTVSS
stdout: high polyreactivity

Just for reference, the nanobody polyreactivity screen of Harvey et al. (2022) is where these values come from.
